# GI50 annotations
# Test system: MDA-MB-231
# Assay name: In vitro cell proliferation assay (MTT), MDA-MB-231
# Assay type: cell-based
# Conditions used: Homo sapiens, 72 hours

>>> endpoint_value("O=C(Cc1cccnc1)Nc1ccc(N2CCC(c3nnc(NC(=O)Cc4cccc(OC(F)(F)F)c4)s3)CC2)nn1")
"< 100 nM"
>>> endpoint_value("O=C(Cc1cccc(OC(F)(F)F)c1)Nc1ccc(N2CCCC(c3nnc(NC(=O)Cc4ccccn4)s3)C2)nn1 (stereo not shown)")
"100 to 250 nM"
>>> endpoint_value("O=C(Cc1cccc(OC(F)(F)F)c1)Nc1ccc(N2CCC(c3nnc(NC(=O)Cc4cccnc4)s3)CC2)nn1")
"100 to 250 nM"

Exercise: State its GI50 on MDA-MB-231: CS(=O)(=O)Nc1cccc(CC(=O)Nc2nnc(C3CCN(c4ccc(NC(=O)Cc5cccc(OC(F)(F)F)c5)nn4)CC3)s2)c1
Solution: 250 to 500 nM

Exercise: State its GI50 on MDA-MB-231: O=C(Cc1cccc(OC(F)(F)F)c1)Nc1ccc(N2CCCC(c3nnc(NC(=O)Cc4cccnc4)s3)C2)cn1 (racemic)
Solution: 1000 to 3000 nM

Exercise: State its GI50 on MDA-MB-231: O=C(Cc1cccc(OC(F)(F)F)c1)Nc1ccc(N2CCC(c3nnc(NC(=O)Cc4cccnc4)s3)CC2)cn1
Solution: 250 to 500 nM

Exercise: State its GI50 on MDA-MB-231: O=C(Cc1cccc(OC(F)(F)F)c1)Nc1ccc(N2CCC(c3nnc(NC(=O)Cc4cnccn4)s3)CC2)nn1
Solution: < 100 nM

---

# Subject of test: Glutaminase(Brain) (Mus musculus, UniProt D3Z7P3)
# Sequence (D3Z7P3 55-674): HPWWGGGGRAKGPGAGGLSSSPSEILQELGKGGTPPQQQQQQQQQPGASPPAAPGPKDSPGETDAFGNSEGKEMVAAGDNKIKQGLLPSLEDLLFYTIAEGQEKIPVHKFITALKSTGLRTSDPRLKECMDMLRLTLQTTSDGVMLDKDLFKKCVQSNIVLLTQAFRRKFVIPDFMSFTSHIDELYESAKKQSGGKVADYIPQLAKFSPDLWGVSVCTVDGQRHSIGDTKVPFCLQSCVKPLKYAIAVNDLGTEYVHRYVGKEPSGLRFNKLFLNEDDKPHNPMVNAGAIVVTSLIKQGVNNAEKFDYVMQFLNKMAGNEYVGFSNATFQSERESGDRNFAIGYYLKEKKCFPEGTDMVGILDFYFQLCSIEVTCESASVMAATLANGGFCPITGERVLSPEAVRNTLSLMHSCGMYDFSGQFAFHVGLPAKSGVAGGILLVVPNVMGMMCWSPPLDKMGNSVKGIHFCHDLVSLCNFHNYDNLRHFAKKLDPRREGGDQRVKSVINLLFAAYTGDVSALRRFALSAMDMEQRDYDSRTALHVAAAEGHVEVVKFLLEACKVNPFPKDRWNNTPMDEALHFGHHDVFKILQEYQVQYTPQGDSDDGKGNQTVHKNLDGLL
# Assay name: Glutaminase enzyme activity using glutaminase enzyme from mice brain/kidney homogenate (Nessler's reagent, ammonia)
# Format: biochemical
# Conditions used: 0.1 μM; mice brain homogenate; read-out: Glutaminase(Brain) activity % inhibition 0.1 μM
# inhibition at 0.1 µM annotations

>>> endpoint_value("O=C(Cc1cccc(OC(F)(F)F)c1)Nc1ccc(N2CCC(c3nnc(NC(=O)Cc4ccc5ncccc5c4)s3)CC2)nn1")
"50 to 75%"

Exercise: State its inhibition at 0.1 µM on Glutaminase(Brain) (Mus musculus, UniProt D3Z7P3): O=C(Cc1cccnc1)Nc1ccc(N2CCC(c3nnc(NC(=O)Cc4c(F)ccc(F)c4F)s3)CC2)nn1
Solution: 50 to 75%

Exercise: State its inhibition at 0.1 µM on Glutaminase(Brain) (Mus musculus, UniProt D3Z7P3): O=C(Cc1ccccn1)Nc1ccc(N2CCC(c3nnc(NC(=O)Cc4cccc(F)c4F)s3)CC2)nn1
Solution: 50 to 75%

Exercise: State its inhibition at 0.1 µM on Glutaminase(Brain) (Mus musculus, UniProt D3Z7P3): O=C(Cc1ccccc1Cl)Nc1ccc(N2CCC(c3nnc(NC(=O)Cc4ccccn4)s3)CC2)nn1
Solution: 50 to 75%

Exercise: State its inhibition at 0.1 µM on Glutaminase(Brain) (Mus musculus, UniProt D3Z7P3): O=C(Cc1ccccn1)Nc1ccc(N2CCC(c3nnc(NC(=O)Cc4ccccc4Cl)s3)CC2)nn1
Solution: 50 to 75%

---

# Subject of test: Glutaminase(Brain) (Mus musculus)
# Assay name: Glutaminase enzyme activity using glutaminase enzyme from mice brain/kidney homogenate (Nessler's reagent, ammonia)
# Format: biochemical
# Conditions used: read-out: Glutaminase(Brain) activity % inhibition 0.1 μM
Experimental endpoint: inhibition at 0.1 µM

>>> endpoint_value("O=C(Cc1cccc(OC(F)(F)F)c1)Nc1ccc(N2CCC(c3nnc(NC(=O)Cc4ccccn4)s3)CC2)nn1")
"75 to 100%"

Exercise: // lookup inhibition at 0.1 µM for O=C(Cc1ccccn1)Nc1ccc(N2CCC(c3nnc(NC(=O)Cc4cccc(OC(F)(F)F)c4)s3)CC2)nn1
Solution: 75 to 100%

Exercise: // lookup inhibition at 0.1 µM for O=C(Cc1cccc(OC(F)(F)F)c1)Nc1ccc(N2CCCC(c3nnc(NC(=O)Cc4ccccn4)s3)C2)nn1 (stereo not shown)
Solution: 50 to 75%

Exercise: // lookup inhibition at 0.1 µM for O=C(Cc1cccc(OC(F)(F)F)c1)Nc1ccc(N2CCC(c3nnc(NC(=O)Cc4ccccn4)s3)CC2)cn1
Solution: < 25%
